Numbers sourced from patent US11319322B2.

Molecular target: KIF5B-RET-BaF3 (Homo sapiens)
Construct: fused on or other part: P33176 (Kinesin-1 heavy chain)
Sequence (P07949 whole entry, change not shown, the tested form may be a part): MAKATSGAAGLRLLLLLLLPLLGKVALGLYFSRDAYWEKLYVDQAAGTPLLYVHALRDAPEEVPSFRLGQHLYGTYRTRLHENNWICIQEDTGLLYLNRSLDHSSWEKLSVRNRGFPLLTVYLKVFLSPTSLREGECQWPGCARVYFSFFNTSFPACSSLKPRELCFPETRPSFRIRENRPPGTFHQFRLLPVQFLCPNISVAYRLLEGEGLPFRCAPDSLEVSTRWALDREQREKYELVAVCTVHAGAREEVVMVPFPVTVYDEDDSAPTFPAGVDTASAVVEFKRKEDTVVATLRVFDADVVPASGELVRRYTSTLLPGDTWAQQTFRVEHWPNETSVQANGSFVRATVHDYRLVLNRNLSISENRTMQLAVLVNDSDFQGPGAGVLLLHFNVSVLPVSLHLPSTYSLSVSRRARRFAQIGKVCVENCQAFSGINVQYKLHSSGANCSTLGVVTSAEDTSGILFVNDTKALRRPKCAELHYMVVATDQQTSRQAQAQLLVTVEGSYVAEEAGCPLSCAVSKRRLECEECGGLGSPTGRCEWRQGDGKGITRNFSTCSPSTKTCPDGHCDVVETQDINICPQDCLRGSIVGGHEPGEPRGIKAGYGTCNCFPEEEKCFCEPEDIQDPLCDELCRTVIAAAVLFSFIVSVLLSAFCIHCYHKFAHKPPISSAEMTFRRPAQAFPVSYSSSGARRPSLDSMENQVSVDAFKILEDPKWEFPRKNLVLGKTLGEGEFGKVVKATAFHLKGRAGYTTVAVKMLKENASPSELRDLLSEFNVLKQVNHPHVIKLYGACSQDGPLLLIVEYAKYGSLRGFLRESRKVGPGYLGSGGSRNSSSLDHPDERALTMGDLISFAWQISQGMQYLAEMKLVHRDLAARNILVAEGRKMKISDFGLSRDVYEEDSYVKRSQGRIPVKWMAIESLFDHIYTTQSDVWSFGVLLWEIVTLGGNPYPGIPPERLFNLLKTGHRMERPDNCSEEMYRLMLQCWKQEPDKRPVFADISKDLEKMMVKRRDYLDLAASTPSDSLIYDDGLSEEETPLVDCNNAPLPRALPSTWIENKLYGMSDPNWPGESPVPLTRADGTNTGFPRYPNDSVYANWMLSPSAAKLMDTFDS
Assay: Growth inhibition of KIF5B-RET-BaF3 cells stably transfected with kinase (MTS)
Format: cell-based
Conditions: 48 h, read-out: KIF5B-RET (IC50/nM)
Description: Growth inhibitory activity of compounds on cell lines stably transfected with kinase The activity of compounds against kinase RET is evaluated by their effect of inhibiting growth of cell lines stably transfected with kinase CCDC6-RET-BaF3, KIF5B-RET-BaF3, and wild-type BaF3 (Proc. Natl. Acad. Sci. USA., 2006, 103, 3153-8.). The growth of the cell lines stably transfected with kinase CCDC6-RET-BaF3, KIF5B-RET-BaF3 depends on their kinase activity. […]
assayMetric: GI50 (nM)

Solved cases (4 shown):
Cc1ccc(C(=O)Nc2cc(CN3CCN(C)CC3)cc(C(F)(F)F)c2)cc1Oc1nc(-c2cccnc2)nc2ccsc12 = 3430
CN1CCN(Cc2ccc(NC(=O)c3cc(Oc4nc(-c5ccoc5)nc5c4ncn5C)ccc3Cl)cc2C(F)(F)F)CC1 = 1910
CN1CCN(Cc2ccc(NC(=O)c3cc(Oc4nc(-c5cccc(N)c5)nc5c4ncn5C)ccc3Cl)cc2C(F)(F)F)CC1 = 1490
CN1CCN(Cc2ccc(NC(=O)c3cc(Oc4nc(-c5ccsc5)nc5c4ncn5C)ccc3Cl)cc2C(F)(F)F)CC1 = 1560

1 = Cc1ccc(Oc2nc(-c3ccc(N)cc3)nc3cc[nH]c23)cc1NC(=O)c1ccc(CN2CCN(C)CC2)c(C(F)(F)F)c1
2 = Cc1ccc(C(=O)Nc2cccc(C(F)(F)F)c2)cc1Oc1nc(-c2ccncc2)nc2c1cnn2C
// query Hi there, can you help? I need to know whether 1 or 2 has lower measured GI50. Lab note: record the label of whichever item you select.
// result 1
(1: 620 nM, 2: 1770 nM)
